These entries and their values trace back to ChEMBL document CHEMBL4725338.

# PROTOCOL TEXT: Apparent permeability in MDCK cells
# Format: ADME, cell-based, Canis lupus familiaris
# ASSAY SETUP: dog
Examples of compounds with documented Papp follow.
Unit ×10⁻⁶ cm/s implied. Number only.

>  <RECORD SMILES>
CNc1cc(C)nc(Nc2ccc(OC)c(C3=CCN(C)CCC3)c2)n1

>  <Papp, ×10⁻⁶ cm/s>
8.4

$$$$
>  <RECORD SMILES>
CNc1cc(C)nc(Nc2ccc(OC)c(C3=CCNCCC3)c2)n1

>  <Papp, ×10⁻⁶ cm/s>
1.4

$$$$

Field Papp (entry `CNc1cc(C)nc(Nc2ccc(OC)c(OCCCN3CCCC3)c2)n1` ) reads 3.1

====

# PROTOCOL TEXT: Metabolic stability in mouse liver microsomes assessed as compound remaining at 0.5 mg/mL incubated for 0.5 hrs
# Assay type: ADME, Microsome
# ASSAY SETUP: read-out: Stabilty
PROPERTY MEASURED: remaining at 0.5 h (%)
Unit % implied. Number only.

Answered cases to consult:
>  <RECORD SMILES>
CNc1cc(C)nc(Nc2ccc(OC)c(OCCCN3CCCC3)c2)n1

>  <UNIT TEXT>
%

>  <remaining at 0.5 h>
48

$$$$
>  <RECORD SMILES>
CNc1cc(C)nc(Nc2ccc(OC)c(C3=CCNCCC3)c2)n1

>  <UNIT TEXT>
%

>  <remaining at 0.5 h>
34

$$$$

Here's the next entry for you.
Field remaining at 0.5 h (entry `CNc1cc(C)nc(Nc2ccc(OC)c(C3=CCN(C)CCC3)c2)n1` ) reads 23

====

# TARGET DESC: CYP2C8 (Homo sapiens, UniProt P10632)
# Sequence (P10632 whole entry): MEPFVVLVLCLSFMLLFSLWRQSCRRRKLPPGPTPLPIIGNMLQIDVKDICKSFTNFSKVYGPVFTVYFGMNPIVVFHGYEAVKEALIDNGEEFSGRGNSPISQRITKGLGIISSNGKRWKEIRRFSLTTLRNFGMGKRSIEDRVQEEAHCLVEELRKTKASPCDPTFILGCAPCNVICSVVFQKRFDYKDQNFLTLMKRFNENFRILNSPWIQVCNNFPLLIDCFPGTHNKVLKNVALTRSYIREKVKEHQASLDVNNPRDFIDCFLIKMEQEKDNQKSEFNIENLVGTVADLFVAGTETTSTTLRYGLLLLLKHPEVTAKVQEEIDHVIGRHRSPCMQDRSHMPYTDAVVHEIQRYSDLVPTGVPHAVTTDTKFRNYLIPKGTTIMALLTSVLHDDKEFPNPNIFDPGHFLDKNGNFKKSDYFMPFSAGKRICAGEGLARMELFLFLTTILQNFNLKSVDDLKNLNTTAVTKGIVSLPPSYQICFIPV
# PROTOCOL TEXT: Inhibition of CYP2C8 (unknown origin) at 10 uM relative to control
# Assay type: ADME
Examples of compounds with documented inhibition at 10 µM follow.
Unit % implied. Number only.

>  <RECORD SMILES>
CNc1cc(C)nc(Nc2ccc(OC)c(C3=CCNCCC3)c2)n1

>  <UNIT TEXT>
%

>  <inhibition at 10 µM>
0

$$$$

Field inhibition at 10 µM (entry `CNc1cc(C)nc(Nc2ccc(OC)c(OCCCN3CCCC3)c2)n1` ) reads 2

====

# PROTOCOL TEXT: Cmax in mouse at 10 mg/kg, po
# Format: ADME, organism-based
# Set-up: route oral, dose 10 mg/kg
# ASSAY SETUP: in vivo
PROPERTY MEASURED: Cmax
Answer with the value and then the unit.

Field Cmax (entry `CNc1cc(C)nc(Nc2ccc(OC)c(C3=CCN(C)CCC3)c2)n1` ) reads 210 nM

Field Cmax (entry `CNc1cc(C)nc(Nc2ccc(OC)c(OCCCN3CCCC3)c2)n1` ) reads 220 nM

Field Cmax (entry `CNc1cc(C)nc(Nc2ccc(OC)c(C3=CCNCCC3)c2)n1` ) reads 450 nM

====

# TARGET DESC: CYP2C19 (Homo sapiens, UniProt P33261)
# Sequence (P33261 whole entry): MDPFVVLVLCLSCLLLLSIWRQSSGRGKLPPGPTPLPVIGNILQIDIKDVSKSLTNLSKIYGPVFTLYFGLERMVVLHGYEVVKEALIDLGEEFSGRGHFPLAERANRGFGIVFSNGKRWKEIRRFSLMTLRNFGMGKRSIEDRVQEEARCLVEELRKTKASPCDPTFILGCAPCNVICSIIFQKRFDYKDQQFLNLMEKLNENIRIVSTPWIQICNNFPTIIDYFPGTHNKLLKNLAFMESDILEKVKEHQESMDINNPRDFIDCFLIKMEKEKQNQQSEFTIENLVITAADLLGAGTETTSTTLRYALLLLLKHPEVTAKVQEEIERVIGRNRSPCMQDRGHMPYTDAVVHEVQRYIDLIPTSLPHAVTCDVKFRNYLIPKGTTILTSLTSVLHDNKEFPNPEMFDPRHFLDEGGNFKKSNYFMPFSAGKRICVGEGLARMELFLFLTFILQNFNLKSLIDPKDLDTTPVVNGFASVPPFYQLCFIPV
# PROTOCOL TEXT: Inhibition of CYP2C19 (unknown origin) at 10 uM relative to control
# Assay type: ADME
Examples of compounds with documented inhibition at 10 µM follow.
Unit % implied. Number only.

>  <RECORD SMILES>
CNc1cc(C)nc(Nc2ccc(OC)c(OCCCN3CCCC3)c2)n1

>  <TARGET DESC>
CYP2C19 (Homo sapiens, UniProt P33261)

>  <UNIT TEXT>
%

>  <inhibition at 10 µM>
3

$$$$

Here's the next entry for you.
Field inhibition at 10 µM (entry `CNc1cc(C)nc(Nc2ccc(OC)c(C3=CCNCCC3)c2)n1` ) reads 9

====

Examples of compounds with documented inhibition at 10 µM follow.
# TARGET DESC: CYP1A2 (Homo sapiens, UniProt P05177)
# Sequence (P05177 whole entry): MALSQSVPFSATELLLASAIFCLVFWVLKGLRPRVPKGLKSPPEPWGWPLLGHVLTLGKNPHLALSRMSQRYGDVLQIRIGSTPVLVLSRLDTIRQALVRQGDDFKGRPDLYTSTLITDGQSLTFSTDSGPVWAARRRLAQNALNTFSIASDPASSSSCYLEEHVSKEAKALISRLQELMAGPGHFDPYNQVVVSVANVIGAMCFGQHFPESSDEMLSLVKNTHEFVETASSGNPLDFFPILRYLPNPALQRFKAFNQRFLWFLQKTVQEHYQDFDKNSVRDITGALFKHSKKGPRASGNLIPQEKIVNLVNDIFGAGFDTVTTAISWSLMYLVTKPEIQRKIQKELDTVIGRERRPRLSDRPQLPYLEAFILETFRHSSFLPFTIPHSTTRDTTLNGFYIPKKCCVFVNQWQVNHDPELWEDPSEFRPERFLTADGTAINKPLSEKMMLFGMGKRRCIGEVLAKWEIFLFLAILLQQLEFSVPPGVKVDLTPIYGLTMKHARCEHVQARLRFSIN
# PROTOCOL TEXT: Inhibition of CYP1A2 (unknown origin) at 10 uM relative to control
# Format: ADME
Unit % implied. Number only.

>  <RECORD SMILES>
CNc1cc(C)nc(Nc2ccc(OC)c(C3=CCNCCC3)c2)n1

>  <UNIT TEXT>
%

>  <EXPERIMENTAL RESULT>
0

$$$$

Here's the next entry for you.
Field inhibition at 10 µM (entry `CNc1cc(C)nc(Nc2ccc(OC)c(OCCCN3CCCC3)c2)n1` ) reads 5

====

# PROTOCOL TEXT: Oral bioavailability in mouse at 10 mg/kg
# Type: ADME, organism-based
# ASSAY SETUP: in vivo
PROPERTY MEASURED: bioavailability (%)
Unit % implied. Number only.

>  <RECORD SMILES>
CNc1cc(C)nc(Nc2ccc(OC)c(OCCCN3CCCC3)c2)n1

>  <UNIT TEXT>
%

>  <bioavailability>
17

$$$$
>  <RECORD SMILES>
CNc1cc(C)nc(Nc2ccc(OC)c(C3=CCN(C)CCC3)c2)n1

>  <UNIT TEXT>
%

>  <bioavailability>
26

$$$$

Field bioavailability (entry `CNc1cc(C)nc(Nc2ccc(OC)c(C3=CCNCCC3)c2)n1` ) reads 40

====

# TARGET DESC: CYP2C9 (Homo sapiens, UniProt P11712)
# Sequence (P11712 whole entry): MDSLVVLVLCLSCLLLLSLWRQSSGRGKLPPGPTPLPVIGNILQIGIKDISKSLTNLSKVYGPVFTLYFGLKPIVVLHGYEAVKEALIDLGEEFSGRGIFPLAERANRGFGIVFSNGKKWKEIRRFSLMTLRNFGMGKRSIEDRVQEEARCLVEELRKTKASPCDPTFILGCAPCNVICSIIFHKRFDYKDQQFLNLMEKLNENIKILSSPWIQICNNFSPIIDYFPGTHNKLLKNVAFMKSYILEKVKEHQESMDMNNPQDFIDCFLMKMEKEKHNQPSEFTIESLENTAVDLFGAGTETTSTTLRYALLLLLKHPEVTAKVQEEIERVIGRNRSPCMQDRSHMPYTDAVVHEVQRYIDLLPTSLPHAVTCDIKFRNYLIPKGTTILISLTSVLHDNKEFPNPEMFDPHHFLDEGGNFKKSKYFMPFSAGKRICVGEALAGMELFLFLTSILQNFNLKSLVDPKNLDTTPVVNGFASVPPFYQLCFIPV
# PROTOCOL TEXT: Inhibition of CYP2C9 (unknown origin) at 10 uM relative to control
# Assay type: ADME
PROPERTY MEASURED: inhibition at 10 µM (%)
Unit % implied. Number only.

>  <RECORD SMILES>
CNc1cc(C)nc(Nc2ccc(OC)c(C3=CCNCCC3)c2)n1

>  <EXPERIMENTAL RESULT>
0

$$$$

Here's the next entry for you.
Field inhibition at 10 µM (entry `CNc1cc(C)nc(Nc2ccc(OC)c(OCCCN3CCCC3)c2)n1` ) reads 0

====

Examples of molecules with documented AUC(0-inf) follow.
# PROTOCOL TEXT: AUC (0 to infinity) in mouse at 10 mg/kg, po
# Format: ADME, organism-based
# Parameters: time infinity, route oral, dose 10 mg/kg
# ASSAY SETUP: in vivo
Unit µM·h implied. Number only.

>  <RECORD SMILES>
CNc1cc(C)nc(Nc2ccc(OC)c(C3=CCNCCC3)c2)n1

>  <UNIT TEXT>
µM·h

>  <EXPERIMENTAL RESULT>
3.15

$$$$
>  <RECORD SMILES>
CNc1cc(C)nc(Nc2ccc(OC)c(C3=CCN(C)CCC3)c2)n1

>  <UNIT TEXT>
µM·h

>  <EXPERIMENTAL RESULT>
3.14

$$$$

Here's the next entry for you.
Field AUC(0-inf) (entry `CNc1cc(C)nc(Nc2ccc(OC)c(OCCCN3CCCC3)c2)n1` ) reads 2.86

====

Examples of compounds with documented C0 follow.
# PROTOCOL TEXT: Initial plasma concentration in mouse at 1 mg/kg, iv
# Type: ADME, organism-based
Unit nM implied. Number only.

Answered cases to consult:
>  <RECORD SMILES>
CNc1cc(C)nc(Nc2ccc(OC)c(C3=CCN(C)CCC3)c2)n1

>  <C0 / nM>
220

$$$$
>  <RECORD SMILES>
CNc1cc(C)nc(Nc2ccc(OC)c(C3=CCNCCC3)c2)n1

>  <C0 / nM>
400

$$$$

Here's the next entry for you.
Field C0 (entry `CNc1cc(C)nc(Nc2ccc(OC)c(OCCCN3CCCC3)c2)n1` ) reads 260

====

# PROTOCOL TEXT: Volume of distribution at steady state in mouse at 1 mg/kg, iv
# Assay type: ADME, organism-based
# ASSAY SETUP: in vivo, read-out: Vdss
PROPERTY MEASURED: Vd (L/kg)
Unit L/kg implied. Number only.

Answered cases to consult:
>  <RECORD SMILES>
CNc1cc(C)nc(Nc2ccc(OC)c(C3=CCNCCC3)c2)n1

>  <UNIT TEXT>
L/kg

>  <Vd>
24.6

$$$$
>  <RECORD SMILES>
CNc1cc(C)nc(Nc2ccc(OC)c(C3=CCN(C)CCC3)c2)n1

>  <UNIT TEXT>
L/kg

>  <Vd>
14.9

$$$$

Here's the next entry for you.
Field Vd (entry `CNc1cc(C)nc(Nc2ccc(OC)c(OCCCN3CCCC3)c2)n1` ) reads 8.3

====

# PROTOCOL TEXT: Aqueous solubility of the compound in pH 1.2 JP1 fluid
# Assay type: physicochemical
Examples of molecules with documented solubility follow.
Unit µg/mL implied. Number only.

Answered cases to consult:
>  <RECORD SMILES>
CNc1cc(C)nc(Nc2ccc(OC)c(C3=CCNCCC3)c2)n1

>  <PROPERTY MEASURED>
solubility

>  <EXPERIMENTAL RESULT>
680

$$$$
>  <RECORD SMILES>
CNc1cc(C)nc(Nc2ccc(OC)c(C3=CCN(C)CCC3)c2)n1

>  <PROPERTY MEASURED>
solubility

>  <EXPERIMENTAL RESULT>
710

$$$$

Here's the next entry for you.
Field solubility (entry `CNc1cc(C)nc(Nc2ccc(OC)c(OCCCN3CCCC3)c2)n1` ) reads 740
